READOUT_NAME: melting point

Examples with their reported melting point follow.
- COMPOUND_SMILES: "COc1ccccc1C=NOc1ncc(F)c(N)n1"
  READOUT_NAME: "melting point"
  MEASUREMENT: "240 to 250 °C (dec.)"
- COMPOUND_SMILES: "COc1ccc(C=NOc2ncc(F)c(NCc3ccc(Cl)cc3)n2)cc1"
  READOUT_NAME: "melting point"
  MEASUREMENT: "141 to 142 °C"
- COMPOUND_SMILES: "Fc1cnc(ON=Cc2ccc(Cl)cc2)nc1NCc1ccc(Cl)cc1"
  READOUT_NAME: "melting point"
  MEASUREMENT: "119 to 121 °C"

Q) Returns the measured melting point for the input molecule. Input: CN(C)/C=N/c1nc(ON=Cc2ccccc2)ncc1F
A) 240 to 244 °C (dec.)

Q) Returns the measured melting point for the input molecule. Input: CC(C)C=NOc1ncc(F)c(N(C)Cc2ccccc2)n1
A) 176 to 179 °C

Q) Returns the measured melting point for the input molecule. Input: COc1ccc(C=NOc2ncc(F)c(N(C)C)n2)cc1
A) 106 to 107 °C

Q) Returns the measured melting point for the input molecule. Input: COc1ccc(C=NOc2ncc(F)c(N(C)Cc3ccccc3)n2)cc1
A) 100 to 103 °C

Q) Returns the measured melting point for the input molecule. Input: CC=NOc1ncc(F)c(NCc2ccccc2F)n1
A) 99 to 100 °C

Q) Returns the measured melting point for the input molecule. Input: CC=NOc1ncc(F)c(N(C)Cc2ccc(Cl)cc2)n1
A) 214 to 220 °C (dec.)

Q) Returns the measured melting point for the input molecule. Input: CN(C)c1nc(ON=Cc2ccccc2)ncc1F
A) 75 to 76 °C

Q) Returns the measured melting point for the input molecule. Input: CN(C)/C=N/c1nc(ON=Cc2ccc(Cl)cc2)ncc1F
A) 230 to 242 °C (dec.)
